Tested on: HEK-293T
MEASUREMENT NOTES: Multiplex assay against HEK293T
Assay type: toxicity, cell-based
PARTICULARS: human, 24 h, 1 µM, compound concentration 1 uM, replicate 2
METRIC NAME: Population Mitotic Cells (%)

[in] Provide Population Mitotic Cells (%), tested on HEK-293T, for CN(C)CC#Cc1ccc(OCCCc2sc(N3CCc4cccc(C(=O)Nc5nc6ccccc6s5)c4C3)nc2C(=O)O)c(F)c1 .
[out] 89%

[in] Provide Population Mitotic Cells (%), tested on HEK-293T, for Cc1nc(Nc2n[nH]c3c2CN(C(=O)N[C@H](CN(C)C)c2ccccc2)C3(C)C)c2sccc2n1 .
[out] 95%

Others:
[in] Provide Population Mitotic Cells (%), tested on HEK-293T, for NC(=O)Nc1cc(-c2cccc(F)c2)sc1C(=O)N[C@H]1CCCNC1 .
[out] 64%

[in] Provide Population Mitotic Cells (%), tested on HEK-293T, for COc1ncc(-c2ccc3nccc(-c4ccnnc4)c3c2)cc1NS(=O)(=O)c1ccc(F)cc1F .
[out] 70%

[in] Provide Population Mitotic Cells (%), tested on HEK-293T, for CN1CCN(CCOc2cc(OC3CCOCC3)c3c(Nc4c(Cl)ccc5c4OCO5)ncnc3c2)CC1 .
[out] 71%

[in] Provide Population Mitotic Cells (%), tested on HEK-293T, for OC1(c2ccc(Cl)cc2)CCN(Cc2c[nH]c3ccccc23)CC1 .
[out] 72%

[in] Provide Population Mitotic Cells (%), tested on HEK-293T, for Cc1nc(-c2ccc(-c3ccc(C(=O)N4CCc5cc6c(cc54)C4(CCN(C)CC4)CO6)cc3)c(C)c2)no1 .
[out] 66%

[in] Provide Population Mitotic Cells (%), tested on HEK-293T, for CN(C)C(=O)N[C@H]1CC[C@H](CCN2CCN(c3cccc(Cl)c3Cl)CC2)CC1.Cl [CARIPRAZINE HYDROCHLORIDE] .
[out] 87%

[in] Provide Population Mitotic Cells (%), tested on HEK-293T, for Cc1nc(-c2cn3c(n2)-c2ccc(-c4cnn(C(C)(C)C(N)=O)c4)cc2OCC3)n(C(C)C)n1 .
[out] 79%

====

Test system: U2OS
MEASUREMENT NOTES: Multiplex assay against U2OS
Type: toxicity, cell-based
PARTICULARS: human, 12 h, 10 µM, compound concentration 10 uM, replicate 1
# reported Population Normal (%); entries follow
Please give a number only; it is taken to be in %.

Reference set (5 entries):
[in] Tell me Population Normal (%) reported for CN1CCN(CCOc2cc(OC3CCOCC3)c3c(Nc4c(Cl)ccc5c4OCO5)ncnc3c2)CC1
[out] 91

[in] Tell me Population Normal (%) reported for O=C1NCN(c2ccccc2)C12CCN(CCCOc1ccc(F)cc1)CC2 [SPIRAMIDE]
[out] 90

[in] Tell me Population Normal (%) reported for CN(C)C(=O)/C(C#N)=C/c1ccc(-c2nc3cnc4[nH]ccc4c3n2C2CCCCC2)o1
[out] 50

[in] Tell me Population Normal (%) reported for CC[C@H](C)C(=O)O[C@H]1C[C@@H](C)C=C2C=C[C@H](C)[C@H](CC[C@@H]3C[C@@H](O)CC(=O)O3)[C@H]21
[out] 89

[in] Tell me Population Normal (%) reported for CN(C)CC#Cc1ccc(OCCCc2sc(N3CCc4cccc(C(=O)Nc5nc6ccccc6s5)c4C3)nc2C(=O)O)c(F)c1
[out] 93

Others:
[in] Tell me Population Normal (%) reported for COc1cccc([C@@H](C)NCCCc2ccccc2Cl)c1.Cl [TECALCET HYDROCHLORIDE]
[out] 91

[in] Tell me Population Normal (%) reported for C=CC(=O)Nc1cccc(C(=O)Nc2ccc(Nc3cc(-c4[nH]c(SC)nc4C)ccn3)cc2)c1
[out] 93
